Reference for the values: paper PMC6753678

Test system: P. berghei ookinete development
Conditions used: primary screen at 1 μM, replicate B
Respond with T for % inhibition, Replicate B values of 40% and above, F for values below.

Consider the following illustrative entries.
Cc1cc(F)ccc1-c1nc(NCC(O)CNCCc2ccccc2)nc2c1ccc(=O)n2-c1c(F)cccc1F.O=C(O)C(F)(F)F (stereo not drawn) :: F
O=C(Nc1ccc(Cl)cc1)N(CC1CC2CCC(C1)N2Cc1ccc(C(F)(F)F)cc1)c1ccc(N2CCOCC2)c(F)c1 (stereo not drawn) :: F
CCOC(=O)[C@H](Cc1cc([N+](=O)[O-])c(Oc2ccc(OC)c(Cc3ccc(OC)c(C(C)C)c3)c2)c([N+](=O)[O-])c1)NC(=O)C(F)(F)F :: F
Cc1[nH]c(C)c(-c2ccc(OCc3ccccc3C(F)(F)F)nc2)c(=O)c1Br :: T
Cc1[nH]c(C)c(-c2ccc(-c3ccc(C(F)(F)F)cc3C(F)(F)F)nc2)c(=O)c1Br :: T

Request: Hi, just wondering whether COCCn1c(-c2cccc(Cl)c2)nn(-c2ccc([N+](=O)[O-])cc2Cl)c1=S shows % inhibition, Replicate B of 40% or higher.
Result: T

Request: Hi, just wondering whether COc1ccc(Cn2c(Nc3cccc(C(F)(F)F)c3)nc3cc(C(=O)NC(C)C)cnc32)cc1Cl shows % inhibition, Replicate B of 40% or higher.
Result: T

Request: Hi, just wondering whether Nc1nc(N)c2c(ccc3c2cnn3Cc2cccnc2)n1 shows % inhibition, Replicate B of 40% or higher.
Result: T

Request: Hi, just wondering whether COc1ccc(Nc2ncc(OC)c(Nc3ccccc3C(N)=O)n2)cc1N1CCN(C)CC1.O=CO shows % inhibition, Replicate B of 40% or higher.
Result: T

Request: Hi, just wondering whether COc1cc(OC)cc(C(=O)Nc2ccc(Nc3nc(C)cc(N(C)C)n3)cc2)c1 shows % inhibition, Replicate B of 40% or higher.
Result: F

Request: Hi, just wondering whether O=C(c1cccs1)N1CCN(c2ccc([N+](=O)[O-])c(NC3CC3)c2)CC1 shows % inhibition, Replicate B of 40% or higher.
Result: T

Request: Hi, just wondering whether CC[C@H]1CN2CCc3cc(OC)c(OC)cc3[C@@H]2C[C@@H]1C[C@H]1NCCc2c1cc(OC)c(O)c2Cl shows % inhibition, Replicate B of 40% or higher.
Result: T

Request: Hi, just wondering whether Cc1cc(=O)[nH]c(-n2nc(C)cc2NC(=O)C2(c3ccc(Cl)cc3)CCCC2)n1 shows % inhibition, Replicate B of 40% or higher.
Result: T

Request: Hi, just wondering whether Cc1nc2ccccc2c(O)c1-c1ccc(Cl)cc1 shows % inhibition, Replicate B of 40% or higher.
Result: T

----------
Each record here notes measured Is compound selective in assay? Pf FGAA active?.
Test system: P. falciparum female gametocytes
Assay comment: P. falciparum female gametogenesis assay (Pf FGAA)
Conditions used: 1: YES; 0: NO

C[C@H](Cc1ccc(Oc2ccc(C[C@@H](C)NC[C@H](O)c3cccc(Cl)c3)cc2)cc1)NC[C@H](O)c1cccc(Cl)c1.Cl :: 0 (0: NO)

Request: Missing value: Is compound selective in assay? Pf FGAA active?, P. falciparum female gametocytes, entry COc1ccc2c(OC)c(CNCCCCCCNCc3ccc4cc(OC)ccc4c3OC)ccc2c1.CS(=O)(=O)O . Fill in?
Result: 0 (0: NO)

Request: Missing value: Is compound selective in assay? Pf FGAA active?, P. falciparum female gametocytes, entry O=C(O)C(F)(F)F.c1cc(CN2CCC(CCN3CCCCC3)CC2)cc(-c2csc(-c3nc4ccccc4[nH]3)c2)c1 . Fill in?
Result: 0 (0: NO)

Request: Missing value: Is compound selective in assay? Pf FGAA active?, P. falciparum female gametocytes, entry ON=C1CCc2cc(-c3cc(-c4ccc(OC5CCNCC5)cc4)oc3-c3ccncc3)ccc21 . Fill in?
Result: 1 (1: YES)

Request: Missing value: Is compound selective in assay? Pf FGAA active?, P. falciparum female gametocytes, entry O=C(c1ccc([N+](=O)[O-])o1)N1CCN(c2nc3c(F)cc(F)cc3s2)CC1 . Fill in?
Result: 1 (1: YES)

Request: Missing value: Is compound selective in assay? Pf FGAA active?, P. falciparum female gametocytes, entry COc1ccc(CCNCCCCCCNCCc2ccc(Cl)c3ccccc23)cc1OC.Cl . Fill in?
Result: 0 (0: NO)
